Ref: patent US4256761A

Molecular target: angiotensin converting enzyme (Oryctolagus cuniculus)
Sequence (P12822 34-1310): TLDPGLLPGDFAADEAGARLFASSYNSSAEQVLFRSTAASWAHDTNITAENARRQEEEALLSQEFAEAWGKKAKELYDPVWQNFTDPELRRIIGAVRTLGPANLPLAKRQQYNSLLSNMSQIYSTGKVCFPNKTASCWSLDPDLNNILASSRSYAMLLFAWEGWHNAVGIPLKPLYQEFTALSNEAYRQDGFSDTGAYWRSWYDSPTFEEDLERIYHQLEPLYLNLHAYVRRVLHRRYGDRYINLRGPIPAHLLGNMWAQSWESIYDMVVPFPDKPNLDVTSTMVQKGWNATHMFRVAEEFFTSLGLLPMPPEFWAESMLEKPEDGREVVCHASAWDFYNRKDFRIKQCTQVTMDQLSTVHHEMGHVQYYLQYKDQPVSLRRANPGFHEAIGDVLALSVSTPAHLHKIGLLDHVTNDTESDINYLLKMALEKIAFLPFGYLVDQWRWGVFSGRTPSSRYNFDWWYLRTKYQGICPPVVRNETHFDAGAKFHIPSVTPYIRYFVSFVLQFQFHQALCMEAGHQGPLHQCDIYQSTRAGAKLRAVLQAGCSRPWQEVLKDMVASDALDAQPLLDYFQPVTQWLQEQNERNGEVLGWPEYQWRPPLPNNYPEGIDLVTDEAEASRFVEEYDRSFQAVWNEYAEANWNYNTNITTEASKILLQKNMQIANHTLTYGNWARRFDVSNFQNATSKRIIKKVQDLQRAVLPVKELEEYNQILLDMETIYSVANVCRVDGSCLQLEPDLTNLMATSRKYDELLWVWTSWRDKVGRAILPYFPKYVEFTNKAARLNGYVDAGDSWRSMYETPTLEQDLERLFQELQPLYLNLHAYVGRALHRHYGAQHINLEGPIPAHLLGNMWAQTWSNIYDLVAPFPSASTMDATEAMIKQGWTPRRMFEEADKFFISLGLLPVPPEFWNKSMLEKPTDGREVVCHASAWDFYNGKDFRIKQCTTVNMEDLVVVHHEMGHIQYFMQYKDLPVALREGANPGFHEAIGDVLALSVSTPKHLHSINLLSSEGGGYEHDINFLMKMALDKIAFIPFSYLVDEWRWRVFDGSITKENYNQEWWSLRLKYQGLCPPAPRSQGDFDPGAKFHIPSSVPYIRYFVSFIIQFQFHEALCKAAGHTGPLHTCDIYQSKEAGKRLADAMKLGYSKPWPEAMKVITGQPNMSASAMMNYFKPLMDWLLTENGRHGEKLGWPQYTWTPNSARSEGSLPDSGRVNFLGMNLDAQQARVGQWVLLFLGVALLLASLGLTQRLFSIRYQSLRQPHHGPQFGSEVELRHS
Entries and their pIC50 values follow.
Interpret pIC50 as the negative base-10 log of the concentration measured in mol/L.

CC(=O)SCC(C)C(=O)N(CC(=O)O)[C@@H]1C[C@H]2CC[C@@H]1C2 (stereo partly drawn) [exo-Norbornyl CH3 CO] = 7.66
CC(CS)C(=O)N(CC(=O)O)[C@@H]1C[C@H]2CC[C@@H]1C2 (stereo partly drawn) [exo-Norbornyl H] = 7.60
CSCCCN(CC(=O)O)C(=O)C(C)CS (stereo not shown) = 7.26

We next turn to a different molecule, shown below.
# molecule CC(=O)SCC(C)C(=O)N(CC(=O)O)C1CCCCCC1 (stereo not shown) ; its pIC50 = 7.06
